Parameter pKi, tested on Serine protease 1 (Bos taurus, UniProt P00760), listed per item.
Sequence (P00760 whole entry): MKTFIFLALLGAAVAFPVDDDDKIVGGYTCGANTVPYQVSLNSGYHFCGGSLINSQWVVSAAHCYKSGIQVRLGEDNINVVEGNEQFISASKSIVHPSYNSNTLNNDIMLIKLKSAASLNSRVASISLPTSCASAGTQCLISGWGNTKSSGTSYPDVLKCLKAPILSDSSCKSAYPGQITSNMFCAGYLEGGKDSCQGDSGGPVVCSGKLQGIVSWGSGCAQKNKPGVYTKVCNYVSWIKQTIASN
A value of pKi is the negative decimal logarithm of a concentration given in moles per litre.

Write down the reported pKi of `N=C(N)c1cccc(Oc2ccc(C(=O)O)c(Oc3cccc(C(=N)N)c3)n2)c1` , test system: Serine protease 1 (Bos taurus, UniProt P00760). 5.66

// fetch Serine protease 1 (Bos taurus, UniProt P00760) pKi for `CCOC(=O)c1ccc(Oc2cccc(C(=N)N)c2)nc1Oc1cccc(C(=N)N)c1` 6.04

Which pKi is reported with Serine protease 1 (Bos taurus, UniProt P00760) for this entry: `CNC(=O)c1ccc(Oc2cccc(C(=N)N)c2)nc1Oc1cccc(C(=N)N)c1` ? 5.85

Serine protease 1 (Bos taurus, UniProt P00760) / pKi / `CNC(=O)Nc1ccc(Oc2cccc(C(=N)N)c2)nc1Oc1cccc(C(=N)N)c1` : value? 6.08

Which measured pKi belongs to `N=C(N)c1cccc(Oc2ccc(NC(=O)NCC(N)=O)c(Oc3cccc(C(=N)N)c3)n2)c1` , tested on Serine protease 1 (Bos taurus, UniProt P00760)? 6.55

Lab request: please report pKi under test system Serine protease 1 (Bos taurus, UniProt P00760) for `N=C(N)c1cccc(Oc2cncc(Oc3cccc(C(=N)N)c3)n2)c1` 6.01

// lookup pKi | system=Serine protease 1 (Bos taurus, UniProt P00760) | key= `N=C(N)c1cccc(Oc2ccc(N)c(Oc3cccc(C(=N)N)c3)n2)c1` 5.89

Any idea what pKi came out for `N=C(N)c1ccc(Oc2cc(Oc3ccc(C(=N)N)cc3)c(Cl)cc2Cl)cc1` on Serine protease 1 (Bos taurus, UniProt P00760)? 5.74

State its pKi on Serine protease 1 (Bos taurus, UniProt P00760): `N=C(N)c1cccc(Oc2cc(C(N)=O)cc(Oc3cccc(C(=N)N)c3)n2)c1` 6.11
